Cited source: ChEMBL document CHEMBL1148820

Entries and their pIC50
Molecular target: B1 bradykinin receptor (Homo sapiens)
Sequence (P46663 whole entry): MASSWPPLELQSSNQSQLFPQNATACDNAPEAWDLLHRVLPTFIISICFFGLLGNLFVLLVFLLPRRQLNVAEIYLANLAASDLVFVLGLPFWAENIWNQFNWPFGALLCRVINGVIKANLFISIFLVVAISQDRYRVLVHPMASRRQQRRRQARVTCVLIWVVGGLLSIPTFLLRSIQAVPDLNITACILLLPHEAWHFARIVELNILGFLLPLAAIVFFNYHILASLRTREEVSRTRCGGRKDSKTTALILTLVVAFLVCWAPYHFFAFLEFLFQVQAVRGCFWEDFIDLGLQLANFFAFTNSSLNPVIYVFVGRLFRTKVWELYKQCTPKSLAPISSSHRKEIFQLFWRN
Test: Antagonist activity at human bradykinin B1 receptor in IL1-beta stimulated IMR90 cells by FLIPR assay
pIC50: −log10 of the molar value.
value.type: pIC50

{"compound": "C[C@@H](NC(=O)c1n[nH]c(NC(=O)c2ccccc2Cl)c1Br)C(=O)N1CCCCC1", "system": "B1 bradykinin receptor (Homo sapiens)", "value.type": "pIC50", "modifier.sign": "=", "numeric.result": 7.80}
{"compound": "CN1CCC(CCNC(=O)c2n[nH]c(NC(=O)c3ccccc3Cl)c2Br)CC1", "system": "B1 bradykinin receptor (Homo sapiens)", "value.type": "pIC50", "modifier.sign": "=", "numeric.result": 7.07}
{"compound": "O=C(Nc1[nH]nc(C(=O)Nc2ccccc2)c1Cl)c1ccccc1Cl", "system": "B1 bradykinin receptor (Homo sapiens)", "value.type": "pIC50", "modifier.sign": "=", "numeric.result": 6.15}
{"compound": "CC(C)(C)c1ccc(-c2n[nH]c(NC(=O)c3ccccc3Cl)c2Br)cc1", "system": "B1 bradykinin receptor (Homo sapiens)", "value.type": "pIC50", "modifier.sign": "=", "numeric.result": 5.49}
{"compound": "O=C(Nc1ccccc1)c1cc(NC(=O)c2ccccc2Cl)[nH]n1", "system": "B1 bradykinin receptor (Homo sapiens)", "value.type": "pIC50", "modifier.sign": "<", "numeric.result": 5.00}
{"compound": "O=C(Nc1c(Br)c(C(=O)NCCC2CCN(c3ccncc3)CC2)nn1-c1ccccn1)c1ccccc1Cl", "system": "B1 bradykinin receptor (Homo sapiens)", "value.type": "pIC50", "modifier.sign": "=", "numeric.result": 7.92}
{"compound": "CC[C@@H](NC(=O)c1n[nH]c(NC(=O)c2ccccc2Cl)c1Br)C(=O)N(C)C", "system": "B1 bradykinin receptor (Homo sapiens)", "value.type": "pIC50", "modifier.sign": "=", "numeric.result": 7.09}
{"compound": "COC(=O)[C@@H](NC(=O)c1n[nH]c(NC(=O)c2ccccc2Cl)c1Br)c1ccccc1", "system": "B1 bradykinin receptor (Homo sapiens)", "value.type": "pIC50", "modifier.sign": "=", "numeric.result": 6.54}
{"compound": "O=C(Nc1[nH]nc(C(=O)NCCc2ccncc2)c1Br)c1ccccc1Cl", "system": "B1 bradykinin receptor (Homo sapiens)", "value.type": "pIC50", "modifier.sign": "=", "numeric.result": 6.31}
{"compound": "O=C(Nc1c(Br)c(C(=O)NCCC2CCN(c3ccncc3)CC2)nn1-c1ccccc1)c1ccccc1Cl", "system": "B1 bradykinin receptor (Homo sapiens)", "value.type": "pIC50", "modifier.sign": "=", "numeric.result": 8.46}
{"compound": "Cn1nc(NC(=O)c2ccccc2Cl)c(Br)c1C(=O)NCCC1CCN(c2ccncc2)CC1", "system": "B1 bradykinin receptor (Homo sapiens)", "value.type": "pIC50", "modifier.sign": "=", "numeric.result": 6.19}
{"compound": "Cc1c(C(=O)NCCC2CCN(c3ccncc3)CC2)n[nH]c1NC(=O)c1ccccc1Cl", "system": "B1 bradykinin receptor (Homo sapiens)", "value.type": "pIC50", "modifier.sign": "=", "numeric.result": 8.03}
{"compound": "Cc1c(C(=O)Nc2ccccc2)n[nH]c1NC(=O)c1ccccc1Cl", "system": "B1 bradykinin receptor (Homo sapiens)", "value.type": "pIC50", "modifier.sign": "=", "numeric.result": 5.70}
{"compound": "Nc1cccc(N2CCC(CNC(=O)c3n[nH]c(NC(=O)c4ccccc4Cl)c3Br)CC2)n1", "system": "B1 bradykinin receptor (Homo sapiens)", "value.type": "pIC50", "modifier.sign": "=", "numeric.result": 7.89}
{"compound": "O=C(Nc1[nH]nc(C(=O)NCCC2CCN(c3ccncc3)CC2)c1Br)c1ccccc1Cl", "system": "B1 bradykinin receptor (Homo sapiens)", "value.type": "pIC50", "modifier.sign": "=", "numeric.result": 8.52}
{"compound": "O=C(Nc1[nH]nc(C(=O)NCCC2CCN(c3ccncc3)CC2)c1Cl)c1ccccc1Cl", "system": "B1 bradykinin receptor (Homo sapiens)", "value.type": "pIC50", "modifier.sign": "=", "numeric.result": 8.41}
{"compound": "O=C(Nc1[nH]nc(C(=O)NCCC2CCN(c3ccncc3)CC2)c1F)c1ccccc1Cl", "system": "B1 bradykinin receptor (Homo sapiens)", "value.type": "pIC50", "modifier.sign": "=", "numeric.result": 7.64}
{"compound": "CN1CCC(N2CCC(CCNC(=O)c3nn(-c4ccccc4)c(NC(=O)c4ccccc4Cl)c3Br)CC2)CC1", "system": "B1 bradykinin receptor (Homo sapiens)", "value.type": "pIC50", "modifier.sign": "=", "numeric.result": 6.49}
{"compound": "C[C@@H](NC(=O)c1n[nH]c(NC(=O)c2ccccc2Cl)c1Br)c1ccccc1", "system": "B1 bradykinin receptor (Homo sapiens)", "value.type": "pIC50", "modifier.sign": "=", "numeric.result": 6.68}
{"compound": "CC(C)C(=O)Nc1[nH]nc(C(=O)NC2N=C(c3ccccc3)c3ccccc3NC2=O)c1Br (centres undefined)", "system": "B1 bradykinin receptor (Homo sapiens)", "value.type": "pIC50", "modifier.sign": "=", "numeric.result": 6.19}
{"compound": "O=C(Nc1c(Br)c(C(=O)NCCC2CCN(c3ccncc3)CC2)nn1Cc1ccccc1)c1ccccc1Cl", "system": "B1 bradykinin receptor (Homo sapiens)", "value.type": "pIC50", "modifier.sign": "=", "numeric.result": 7.15}
{"compound": "O=C(Nc1c(Br)c(C(=O)N[C@@H]2CCCCNC2=O)nn1-c1ccccc1)c1ccccc1Cl", "system": "B1 bradykinin receptor (Homo sapiens)", "value.type": "pIC50", "modifier.sign": "<", "numeric.result": 5.00}
{"compound": "O=C(Nc1[nH]nc(C(=O)N[C@@H]2CN3CCC2CC3)c1Br)c1ccccc1Cl", "system": "B1 bradykinin receptor (Homo sapiens)", "value.type": "pIC50", "modifier.sign": "=", "numeric.result": 7.22}
{"compound": "O=C(Nc1[nH]nc(C(=O)NC2N=C(c3ccccc3)c3ccccc3NC2=O)c1Br)c1ccccc1 (centres undefined)", "system": "B1 bradykinin receptor (Homo sapiens)", "value.type": "pIC50", "modifier.sign": "=", "numeric.result": 7.31}
{"compound": "COc1ccc(-n2nc(C(=O)NCCC3CCN(c4ccncc4)CC3)c(Br)c2NC(=O)c2ccccc2Cl)cc1", "system": "B1 bradykinin receptor (Homo sapiens)", "value.type": "pIC50", "modifier.sign": "=", "numeric.result": 5.92}
{"compound": "O=C(Nc1[nH]nc(C(=O)N[C@@H]2CCCCNC2=O)c1Br)c1ccccc1Cl", "system": "B1 bradykinin receptor (Homo sapiens)", "value.type": "pIC50", "modifier.sign": "=", "numeric.result": 6.54}
{"compound": "Cn1nc(C(=O)NCCC2CCN(c3ccncc3)CC2)c(Br)c1NC(=O)c1ccccc1Cl", "system": "B1 bradykinin receptor (Homo sapiens)", "value.type": "pIC50", "modifier.sign": "=", "numeric.result": 7.36}
{"compound": "Cc1nc(-c2n[nH]c(NC(=O)c3ccccc3Cl)c2Br)cs1", "system": "B1 bradykinin receptor (Homo sapiens)", "value.type": "pIC50", "modifier.sign": "=", "numeric.result": 5.96}
{"compound": "CN1CCC(N2CCC(CCNC(=O)c3n[nH]c(NC(=O)c4ccccc4Cl)c3Br)CC2)CC1", "system": "B1 bradykinin receptor (Homo sapiens)", "value.type": "pIC50", "modifier.sign": "=", "numeric.result": 8.74}
{"compound": "O=C(NCCC1CCN(c2ccncc2)CC1)c1cc(NC(=O)c2ccccc2Cl)[nH]n1", "system": "B1 bradykinin receptor (Homo sapiens)", "value.type": "pIC50", "modifier.sign": "=", "numeric.result": 6.70}
{"compound": "CC(=O)Nc1[nH]nc(C(=O)NC2N=C(c3ccccc3)c3ccccc3NC2=O)c1Br (centres undefined)", "system": "B1 bradykinin receptor (Homo sapiens)", "value.type": "pIC50", "modifier.sign": "<", "numeric.result": 5.00}
{"compound": "O=C(Nc1[nH]nc(C(=O)Nc2ccc(CCC3=NCCN3)cc2)c1Br)c1ccccc1Cl", "system": "B1 bradykinin receptor (Homo sapiens)", "value.type": "pIC50", "modifier.sign": "=", "numeric.result": 10.12}
{"compound": "O=C(Nc1[nH]nc(C(=O)NC2N=C(c3ccccc3)c3ccccc3NC2=O)c1Br)c1ccccc1F (centres undefined)", "system": "B1 bradykinin receptor (Homo sapiens)", "value.type": "pIC50", "modifier.sign": "=", "numeric.result": 8.00}
{"compound": "O=C(Nc1[nH]nc(C(=O)Nc2ccncc2)c1Br)c1ccccc1Cl", "system": "B1 bradykinin receptor (Homo sapiens)", "value.type": "pIC50", "modifier.sign": "=", "numeric.result": 6.25}
{"compound": "O=C(Nc1[nH]nc(C(=O)Nc2ccccc2)c1Br)c1ccccc1Cl", "system": "B1 bradykinin receptor (Homo sapiens)", "value.type": "pIC50", "modifier.sign": "=", "numeric.result": 6.28}
{"compound": "NC(=O)[C@@H](NC(=O)c1n[nH]c(NC(=O)c2ccccc2Cl)c1Br)c1ccccc1", "system": "B1 bradykinin receptor (Homo sapiens)", "value.type": "pIC50", "modifier.sign": "=", "numeric.result": 5.77}
{"compound": "O=C(Nc1c(Br)c(C(=O)N[C@@H]2N=C(c3ccccc3)c3ccccc3NC2=O)nn1-c1ccccc1)c1ccccc1Cl", "system": "B1 bradykinin receptor (Homo sapiens)", "value.type": "pIC50", "modifier.sign": "<", "numeric.result": 5.00}
{"compound": "O=C(Nc1[nH]nc(C(=O)NC2N=C(c3ccccc3)c3ccccc3NC2=O)c1Br)c1ccccc1Cl (racemic)", "system": "B1 bradykinin receptor (Homo sapiens)", "value.type": "pIC50", "modifier.sign": "=", "numeric.result": 8.28}
{"compound": "CN(C)CCn1nc(C(=O)NCCC2CCN(c3ccncc3)CC2)c(Br)c1NC(=O)c1ccccc1Cl", "system": "B1 bradykinin receptor (Homo sapiens)", "value.type": "pIC50", "modifier.sign": "=", "numeric.result": 5.80}
